Reported composite z-score by item:
Tested on: Chordin-like protein 2 (CHRDL2)
EXPERIMENT_DESCRIPTION: compounds binding chordin-like 2 – biochemical, small-molecule microarray, 635 nm fluorescence, primary screen (AID 1126);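 further: printed compound slides probed with Chrdl2 protein at 4 µg/mL for 1 h at 4 C; score merges 667 nm emission intensity with signal to noise over three replicate slides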
STUDY_CONDITIONS: fluorescence 635 nm, higher = more signal
Respond using a number only.

Solved entries (count: 5):
- CCCc1cc2c(n1CCO)C(C)C1CN(C(=O)c3ccccc3)C(C)(C(=O)OC)C21 (stereo not drawn): -1.23
- CCCC[C@@H]1C[C@H]1[C@@H](NP(=O)(c1ccccc1)c1ccccc1)c1ccc(Cl)cc1: -0.226
- CCCC=C(CCC)[C@@H](NP(=O)(c1ccccc1)c1ccccc1)c1ccccc1: -0.141
- CN1CCC(c2ccc(CO)cc2)=CC1C1CC1 (stereo not drawn): 0.0276
- CCc1cc2c(nc1CC)CCN(CCC(C)=NOC)C2: 0.639

[Q] Which composite z-score is reported for this compound? c1ccc(-c2cc3c(nc2-c2ccccc2)CCNC3)cc1
[A] 0.12

[Q] Which composite z-score is reported for this compound? COC(=O)[C@@]1(Cc2ccccc2)[C@H]2c3cc(C(=O)N(C)C)n(C)c3C[C@H]2CN1C(=O)c1ccccc1
[A] -0.652

[Q] Which composite z-score is reported for this compound? CN1CCC(c2ccc(CO)cc2)=CC1c1cccs1 (stereo not drawn)
[A] 1.35

[Q] Which composite z-score is reported for this compound? COC(=O)[C@H]1C(=O)c2ccccc2O[C@@](C(=O)OC)(c2ccccc2)[C@@H]1c1ccccc1
[A] -0.0221

[Q] Which composite z-score is reported for this compound? COC(=O)[C@H]1[C@@H](O)[C@@]2(O)c3c(OC)cc(OC)cc3O[C@@]2(c2ccc(OC)cc2)[C@@H]1c1ccccc1
[A] 0.671

---

SYSTEM_NAME: Follistatin (Homo sapiens) (UniProt P19883)
Sequence (P19883 whole entry, looked up): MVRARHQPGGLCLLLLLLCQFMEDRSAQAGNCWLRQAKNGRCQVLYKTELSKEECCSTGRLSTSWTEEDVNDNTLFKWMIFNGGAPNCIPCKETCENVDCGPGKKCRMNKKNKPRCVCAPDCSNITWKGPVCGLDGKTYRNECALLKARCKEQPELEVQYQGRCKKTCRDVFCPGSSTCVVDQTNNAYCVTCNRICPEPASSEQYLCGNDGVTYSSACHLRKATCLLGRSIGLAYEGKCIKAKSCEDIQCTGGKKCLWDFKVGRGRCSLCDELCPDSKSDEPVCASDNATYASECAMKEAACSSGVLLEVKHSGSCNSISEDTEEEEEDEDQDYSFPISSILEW
EXPERIMENT_DESCRIPTION: FST protein binding to printed compounds – biochemical, small-molecule microarray, 635/667 nm fluorescence, primary screen (AID 1132)
STUDY_CONDITIONS: 635 nm fluorescence, higher = more signal
Reported composite z-score by item:
Respond using a number only.

Solved entries (count: 4):
- OCc1ccc(C2=CC(C3CC3)N(Cc3sc4ccccc4c3Cl)CC2)cc1 (stereo not given): 1.06
- C[C@@H]1OC=C2[C@@H](O)[C@H]3O[C@H]3C(=O)[C@]23[C@H]1[C@H]1C2=C([C@@H](O)[C@H]4O[C@H]4C2=O)[C@@H]3O[C@@H]1C: 0.0982
- COC(=O)C1(C)C=C2C(=C(C)C(=O)C2C)CN1 (stereo not given): -0.0995
- CCc1cc2c(nc1CC)CCN(CCC(C)=NOC)C2: 1.24

Now turn to the next compound.
[Q] Which composite z-score is reported for this compound? COC(=O)[C@@]1(Cc2ccccc2)[C@H]2c3cc(C(=O)N(C)C)[nH]c3C[C@H]2CN1C(=O)c1ccccc1
[A] -0.426

---

Tested on: Sonic hedgehog protein (Shh)
EXPERIMENT_DESCRIPTION: Sonic hedgehog microarray binding compounds – biochemical, small-molecule microarray, 635/667 nm fluorescence, primary screen (AID 1151);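 further: Shh protein binding to compounds spotted on small-molecule microarray slides; score combines spot fluorescence intensity with signal-to-noise across triplicate slides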
STUDY_CONDITIONS: 635 nm fluorescence, higher = more signal
ATTRIBUTE_MEASURED: composite z-score
Respond using a number only.

[Q] Which composite z-score is reported for this molecule? CN1CCc2nc(CO)c(CO)cc2C1
[A] 0.424

[Q] Which composite z-score is reported for this molecule? C[C@@H]1Cc2c(cnc3c2CN(C)CC3)CO1
[A] 1.71

[Q] Which composite z-score is reported for this molecule? CCCC=C(CCC)[C@@H](NP(=O)(c1ccccc1)c1ccccc1)c1ccccc1
[A] -0.0623

[Q] Which composite z-score is reported for this molecule? CCCc1cc2c(n1CCO)C(C)C1CN(C(=O)c3ccccc3)C(C)(C(=O)OC)C21 (stereo unspecified)
[A] -0.898

[Q] Which composite z-score is reported for this molecule? CCCc1cc2c(n1Cc1ccco1)C(C)C1CN(C(=O)c3ccccc3)C(C)(C(=O)OC)C21 (stereo unspecified)
[A] 0.357

[Q] Which composite z-score is reported for this molecule? CCOC(=O)[C@H]1CC=C2C(=O)Oc3ccc(Br)cc3[C@@H]21
[A] -0.968

[Q] Which composite z-score is reported for this molecule? C=C(CC1(CNP(=O)(c2ccccc2)c2ccccc2)CC1)c1ccccc1
[A] -1.31

[Q] Which composite z-score is reported for this molecule? COC(=O)[C@@]1(Cc2ccccc2)[C@H]2c3cc(C(=O)N(C)C)n(C)c3C[C@H]2CN1C(=O)c1ccccc1
[A] -0.916

[Q] Which composite z-score is reported for this molecule? CCCc1cc2c(n1Cc1ccc(C)cc1)C(C)C1CN(C(=O)c3ccccc3)C(C)(C(=O)OC)C21 (stereo unspecified)
[A] -0.2

[Q] Which composite z-score is reported for this molecule? COc1cc2c(cc1O)C=[N+](C)CC2
[A] 1.65

[Q] Which composite z-score is reported for this molecule? CCc1cc2c(nc1CC)CCN(CCC(C)=NOC)C2
[A] 1.05

[Q] Which composite z-score is reported for this molecule? CCOC(=O)[C@H]1CC=C2C(=O)Oc3ccccc3[C@@H]21
[A] -0.528

[Q] Which composite z-score is reported for this molecule? COC(=O)[C@@]1(Cc2ccccc2)[C@H]2c3cc(C(=O)N(C)C)[nH]c3C[C@H]2CN1C(=O)c1ccccc1
[A] -0.836

[Q] Which composite z-score is reported for this molecule? CN1CCC(c2ccc(CO)cc2)=CC1c1cccs1 (stereo unspecified)
[A] 1.7

[Q] Which composite z-score is reported for this molecule? COc1cc2c(cc1O)C(C)N(C)CC2 (stereo unspecified)
[A] -0.12

[Q] Which composite z-score is reported for this molecule? c1ccc(-c2cc3c(nc2-c2ccccc2)CCNC3)cc1
[A] -0.193

---

System: Human papillomavirus type 1a E7 protein (residues 1-88)
EXPERIMENT_DESCRIPTION: HPV1a E7 small-molecule binders, primary screen, biochemical, small-molecule microarray, residues 1-88, 635 nm (AID 1129)
STUDY_CONDITIONS: small-molecule microarray binding, fluorescence 635 nm; higher = more signal
ATTRIBUTE_MEASURED: composite z-score
Respond using a number only.

Solved entries (count: 2):
- CN1CCC(c2ccc(CO)cc2)=CC1C1CC1 (configuration not stated): -0.855
- COc1cc2c(cc1O)C=[N+](C)CC2: -0.662

[Q] Which composite z-score is reported for this compound? CCCc1cc2c(n1Cc1cccc(Cl)c1)C(C)C1CN(C(=O)c3ccccc3)C(C)(C(=O)OC)C21 (configuration not stated)
[A] 1.23

[Q] Which composite z-score is reported for this compound? CCCC[C@@H]1C[C@H]1[C@@H](NP(=O)(c1ccccc1)c1ccccc1)c1ccc(Cl)cc1
[A] -0.212

---

EXPERIMENT_DESCRIPTION: JC-1 mitochondrial signal, unstimulated HepG2 cells – cell-based, JC-1 fluorescence, 24 h, 100 nL compound, profiling panel (AID 1167); further: test concentration not given here
STUDY_CONDITIONS: HepG2 mitochondrial potential, higher = more signal
Answer f if z-score is under 0.2, and t if it is 0.2 or more.

• COC(=O)[C@H]1[C@H](c2ccccc2)C(=O)[C@]2(O)c3ccccc3O[C@@]12c1ccccc1 = t

[Q] Decide: is the reported value of z-score for COC(=O)[C@@]1(Cc2ccc(F)cc2)[C@H]2c3cc(C(=O)N(C)C)[nH]c3C[C@H]2CN1C(=O)c1ccccc1 equal to or greater than 0.2?
[A] f

---

Reported composite z-score by item:
EXPERIMENT_DESCRIPTION: binders of probe aHhip on microarray, primary screen, stem cell growth factor project, biochemical, small-molecule microarray, fluorescence 635/667 (AID 1087);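 further: score merges spot fluorescence at 667nm with spot signal to noise ratio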
STUDY_CONDITIONS: higher = more signal
Respond using a number only.

Solved entries (count: 5):
* CCCc1cc2c(n1Cc1cccc(Cl)c1)C(C)C1CN(C(=O)c3ccccc3)C(C)(C(=O)OC)C21 (configuration not stated) | 0.192
* CN1CCc2nc(CO)c(CO)cc2C1 | 0.0881
* C=C(CC1(CNP(=O)(c2ccccc2)c2ccccc2)CC1)c1ccccc1 | -0.0618
* CCCC=C(CCC)[C@@H](NP(=O)(c1ccccc1)c1ccccc1)c1ccccc1 | 0.408
* COC(=O)NCC=Cc1nc(CCC=CC(=O)O[C@H]2CC3CC(=O)O[C@@H](C=CCC(C)C)C[C@@H]4CC[C@H](C)[C@@H](C[C@@H](OC)C[C@H](C2)O3)O4)co1 | -0.12

[Q] Which composite z-score is reported for this molecule? COC(=O)[C@@]1(Cc2ccc(F)cc2)[C@H]2c3cc(C(=O)N(C)C)[nH]c3C[C@H]2CN1C(=O)c1ccccc1
[A] -0.236
